Kindly supply the reported inhibition values for the records listed here.
- systemTested: Kappa-type opioid receptor (Homo sapiens)
- experimentNotes: kappa opioid receptor blockers, retest – cell-based, fluorescence, confirmation (AID 652082)
- conditionSummary: OPRK1 cell line, fluorescence antagonist read-out; at 9 µM; active compounds read high
One number for each entry, in %.

Take a look at these entries with their results.
S=C(NNc1c(Cl)cncc1Cl)Nc1ccc(Cl)cc1Cl    51.8
CCN(CC)c1ccc(/C=C/c2ccc([N+](=O)[O-])cc2C#N)cc1    49.6
CCOC(=O)c1ccc(N2CC3CCCCN3C2c2cccc(OC)c2O)cc1 (stereo not given)    49
CN(C)c1cccc2c1c(NC(=O)Nc1ccc(OCc3ccccc3)cc1)nn2C    58.2

// next entry
Request: Entry COc1cc([N+](=O)[O-])c(OC)cc1SCc1n[nH]c(=S)n1-c1ccc(C)cc1 has what inhibition?
Response: 73.3
